EXPERIMENTAL_TARGET: mAChR M1 (UniProt P08482)
PROTOCOL_NOTES: mAChR M1 cell-based functional assay (calcium mobilization, PAM mode)
APPLIED_CONDITIONS: Percent of AChmax activity in presence of 30 μM test compound
ENDPOINT: Emax (%)

MOLECULE	EXPERIMENTAL_TARGET	ENDPOINT	UNITS_SYMBOL	TEST_RESULT
Cn1cc(-c2ccc(CN3C(=O)C(O)(CF)c4ccccc43)c(F)c2)cn1 (centres unmarked)	mAChR M1 (UniProt P08482)	Emax	%	52
Cn1cc(-c2ccc(CN3C(=O)C(O)(C(F)(F)F)c4ccccc43)c(F)c2)cn1 (centres unmarked) [Compound B6]	mAChR M1 (UniProt P08482)	Emax	%	60
Cn1cc(-c2ccc(CN3C(=O)C(O)(C(F)(F)F)c4ccccc43)c(F)c2)cn1 (centres unmarked) [Compound B19]	mAChR M1 (UniProt P08482)	Emax	%	54
CCn1cc(-c2ccc(CN3C(=O)C(O)(C(F)(F)F)c4ccccc43)c(F)c2)cn1 (centres unmarked)	mAChR M1 (UniProt P08482)	Emax	%	45
Cn1cc(-c2ccc(CN3C(=O)C(N)c4ccccc43)c(F)c2)cn1 (centres unmarked)	mAChR M1 (UniProt P08482)	Emax	%	46
Cn1cc(-c2ccc(CN3C(=O)C(O)(C(F)(F)F)c4ccccc43)cn2)cn1 (centres unmarked)	mAChR M1 (UniProt P08482)	Emax	%	54
Cc1n[nH]cc1-c1ccc(CN2C(=O)C(O)(C(F)(F)F)c3ccccc32)c(F)c1 (centres unmarked)	mAChR M1 (UniProt P08482)	Emax	%	37
Cn1cc(-c2ccc(CN3C(=O)C(O)(C(F)(F)F)c4ccccc43)cc2F)cn1 (centres unmarked) [Compound B11]	mAChR M1 (UniProt P08482)	Emax	%	45

====

EXPERIMENTAL_TARGET: mAChR M1 (UniProt P08482)
PROTOCOL_NOTES: mAChR M1 cell-based functional assay (calcium mobilization, PAM mode)
APPLIED_CONDITIONS: potentiation of EC20 acetylcholine response, calcium flux in CHO-K1 cells expressing mAChR M1; >10 μM is estimated for low potency compounds without plateau
ENDPOINT: EC50

Would you please look over these solved cases?
MOLECULE	EC50
CC(C)n1cc(-c2ccc(CN3C(=O)C(O)(C(F)(F)F)c4ccccc43)c(F)c2)cn1 (stereo not drawn)	> 10 µM
CN(C)C1(C)C(=O)N(Cc2ccc(-c3cnn(C)c3)cc2)c2ccccc21 (racemic)	5.5 µM

Now, please, on to the next molecule.
Recorded EC50 (molecule CCn1cc(-c2ccc(CN3C(=O)C(O)(C(F)(F)F)c4ccccc43)c(F)c2)cn1 (stereo not drawn) ): > 10 µM

====

EXPERIMENTAL_TARGET: mAChR M1 (UniProt P08482)
PROTOCOL_NOTES: mAChR M1 cell-based functional assay (calcium mobilization, PAM mode)
APPLIED_CONDITIONS: Percent of AChmax activity in presence of 30 μM test compound
ENDPOINT: Emax (%)

COMPOUND	ENDPOINT	TEST_RESULT
Cn1cc(-c2ccc(CN3C(=O)C(O)(C(F)(F)F)c4ccccc43)cc2)cn1 (centres unmarked)	Emax	63
CC(c1ccc(-c2cnn(C)c2)cc1F)N1C(=O)Cc2ccccc21 (centres unmarked)	Emax	44
CN(C)C1(C)C(=O)N(Cc2ccc(-c3cnn(C)c3)cc2)c2ccccc21 (racemic)	Emax	43

[1] Cn1cc(-c2ccc(CN3C(=O)Cc4ccccc43)c(F)c2)cn1
[2] Cn1cc(-c2ccc(CN3C(=O)C(C)(O)c4ccccc43)c(F)c2)cn1 (centres unmarked)
Input: Emax comparison. Which is larger, 1 or 2 ? Your choice should be expressed through its label.
Output: 1
(1: 75%, 2: 52%)

====

EXPERIMENTAL_TARGET: mAChR M1 (UniProt P08482)
PROTOCOL_NOTES: mAChR M1 cell-based functional assay (calcium mobilization, PAM mode)
APPLIED_CONDITIONS: potentiation of EC20 acetylcholine response, calcium flux in CHO-K1 cells expressing mAChR M1; >10 μM is estimated for low potency compounds without plateau
ENDPOINT: EC50 (µM)

These recorded examples may help you get a feel for the data.
COMPOUND	ENDPOINT	TEST_RESULT
Cn1cc(-c2ccc(CN3C(=O)C(O)(CF)c4ccccc43)c(F)c2)cn1 (stereo not shown)	EC50	4.6
Cn1cc(-c2ccc(CN3C(=O)C(N)c4ccccc43)c(F)c2)cn1 (stereo not shown)	EC50	1.36
Cn1cc(-c2ccc(CN3C(=O)C(O)(C(F)(F)F)c4ccccc43)c(F)c2)cn1 (single isomer, unassigned) [Compound B2]	EC50	3.4
Cn1cc(-c2ccc(CN3C(=O)C(O)(C(F)(F)F)c4ccccc43)c(F)c2)cn1 (stereo not shown) [Compound B19]	EC50	3.64
Cn1cc(-c2ccc(CN3C(=O)C(O)(C(F)(F)F)c4ccccc43)c(F)c2)cn1 (stereo not shown) [Compound B6]	EC50	5

[I] Cn1cc(-c2ccc(CN3C(=O)C(O)(C(F)(F)F)c4cc(F)ccc43)c(F)c2)cn1 (stereo not shown)
[II] Cn1cc(-c2ccc(CN3C(=O)Cc4ccccc43)c(F)c2)cn1
Input: Of the two listed items, I and II , which carries the larger EC50 figure? // caller expects the label of the chosen entry
Output: I

====

EXPERIMENTAL_TARGET: mAChR M1 (UniProt P08482)
Sequence (P08482 1-460): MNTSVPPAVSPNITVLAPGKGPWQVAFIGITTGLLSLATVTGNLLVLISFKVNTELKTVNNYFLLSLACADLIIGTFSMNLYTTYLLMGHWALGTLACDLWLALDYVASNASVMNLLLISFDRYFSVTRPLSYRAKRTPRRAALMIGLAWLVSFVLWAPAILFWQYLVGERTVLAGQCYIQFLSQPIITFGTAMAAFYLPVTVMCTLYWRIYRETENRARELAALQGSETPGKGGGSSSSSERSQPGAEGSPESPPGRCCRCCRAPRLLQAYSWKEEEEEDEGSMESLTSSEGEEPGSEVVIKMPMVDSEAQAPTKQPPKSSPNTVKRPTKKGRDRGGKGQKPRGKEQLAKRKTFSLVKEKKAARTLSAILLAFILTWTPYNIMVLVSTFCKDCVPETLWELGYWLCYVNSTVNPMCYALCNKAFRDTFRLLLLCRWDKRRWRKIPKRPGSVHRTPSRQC
PROTOCOL_NOTES: mAChR M1 cell-based functional assay (calcium mobilization, PAM mode)
APPLIED_CONDITIONS: Percent of AChmax activity in presence of 30 μM test compound
ENDPOINT: Emax (%)

MOLECULE	UNITS_SYMBOL	TEST_RESULT
CC1C(=O)N(Cc2ccc(-c3cnn(C)c3)cc2F)c2ccccc21 (centres unmarked)	%	55
Cn1cc(-c2ccc(CN3C(=O)C(O)(C(F)(F)F)c4cc(F)ccc43)c(F)c2)cn1 (centres unmarked)	%	35
CC(C)n1cc(-c2ccc(CN3C(=O)C(O)(C(F)(F)F)c4ccccc43)c(F)c2)cn1 (centres unmarked)	%	38
Cn1cc(-c2ccc(CN3C(=O)C(O)(C(F)(F)F)c4ccccc43)cc2F)cn1 (centres unmarked) [Compound B21]	%	38
CCCn1cc(-c2ccc(CN3C(=O)C(O)(C(F)(F)F)c4ccccc43)c(F)c2)cn1 (centres unmarked)	%	31

[P] Cn1cc(-c2ccc(CN3C(=O)C(O)(C(F)(F)F)c4ccccc43)c(Cl)c2)cn1 (centres unmarked)
[Q] Cn1cc(-c2ccc(CN3C(=O)C(C)(N)c4ccccc43)cc2)cn1 (racemic)
[R] Cn1cc(-c2ccc(CN3C(=O)C(O)(C(F)(F)F)c4ccccc43)c(F)c2)cn1 (single isomer, unassigned) [Compound B2]
Input: Rank entries according to their Emax, from the largest number down. Response field: labels, in requested order.
Output: R, P, Q
(R: 68%, P: 41%, Q: 28%)

====

EXPERIMENTAL_TARGET: mAChR M1 (UniProt P08482)
PROTOCOL_NOTES: mAChR M1 cell-based functional assay (calcium mobilization, PAM mode)
APPLIED_CONDITIONS: potentiation of EC20 acetylcholine response, calcium flux in CHO-K1 cells expressing mAChR M1; >10 μM is estimated for low potency compounds without plateau
ENDPOINT: EC50

# annotated cases, reported EC50 shown
COMPOUND	EC50
Cn1cc(-c2ccc(CN3C(=O)C(C)(N)c4ccccc43)cc2)cn1 (racemic) [Compound B15]	> 10 µM
Cc1n[nH]cc1-c1ccc(CN2C(=O)C(O)(C(F)(F)F)c3ccccc32)c(F)c1 (stereo not drawn) [Compound B5]	4.9 µM

Could you now consider this next compound?
Note to self: EC50 recorded for Cn1cc(-c2ccc(CN3C(=O)C(O)(C(F)(F)F)c4ccccc43)c(Cl)c2)cn1 (stereo not drawn) [Compound B10] was > 10 µM
